Where do the numbers come from? From ChEMBL document CHEMBL1201862.

# Tested on: HL-60
# test-protocol: NCI tumour cell line growth inhibition, 48 h
Activity calls are given as the source filed them. No stated cut-off is given here; in the data, active = GI50 up to about 1.1 µM and inactive = higher.
Respond with a class label; see yes (active), no (inactive)

Take a look at these entries with their results.
# molecule, group-label
data = [
    ("Nc1ccccc1C(=O)C(Br)C(Br)c1ccc2c(c1)OCO2 (configuration not stated)", "no"),
    ("CN(C)/C=N/CCN1CCOCC1", "no"),
    ("CC(C)C(/C=C/c1ccccc1)=N\\NC(=S)NN", "no"),
    ("O=[N+]([O-])c1cccc2nc3ccccc3c(NCCO)c12", "yes"),
    ("Clc1ccc2c(NCCNC3CCCCC3)ccnc2c1", "no"),
]

// return assay outcome for `O=C1C=C(Nc2ccc(S(=O)(=O)Nc3ncccn3)cc2)c2ccccc2C1=O`
no

// return assay outcome for `O=C(COc1cc(=O)oc2ccccc12)c1ccccc1`
no

// return assay outcome for COc1ccc(N2C(=O)C3c4[nH]c5ccccc5c4C4CCCCCCCCCC4C3C2=O)cc1 (configuration not stated)
no

// return assay outcome for `CSc1nc2c3ccccc3ccn2c1C(=O)N/N=C/c1ccccc1`
no

// return assay outcome for `NC(=O)N/N=C/C(/C=N/NC(N)=O)[N+](=O)[O-]`
no

* * *

Reported GI50 values for a set of molecules
# Test system: Malme-3M
# test-protocol: NCI tumour cell line growth inhibition, 48 h
Activity calls are given as the source filed them. Rule as the data show it: active = GI50 up to about 1.1 µM and inactive = higher.

# molecule, recorded-value
measured = [
    ("CC1OC(OC2C(OC3CCC4(C)C(CCC5(C)C4CC=C4C6CC(C)(C)CCC6(C(=O)O)CCC45C)C3(C)CO)OCC(O)C2O)C(O)C(O)C1O (centres undefined)", "19.3 µM (inactive)"),
    ("O=C(N/N=C(/c1nc2ccc([N+](=O)[O-])cc2[nH]c1=O)C(O)c1ccc([N+](=O)[O-])cc1)c1ccncc1 (centres undefined)", "> 100 µM (inactive)"),
    ("Cc1ccccc1NC(=O)c1c(C)oc2c1C(=O)c1ccccc1C2=O", "10.2 µM (inactive)"),
]

Requested field: GI50. Item: `Cn1c(=O)c2sc3cc4c(cc3c2c2ccccc21)sc1c(=O)n(C)c2ccccc2c14`
81.7 µM (inactive)

Requested field: GI50. Item: `N#Cc1c(-c2ccc(Cl)cc2)cc(-c2ccc(Nc3ccnc4cc(Cl)ccc34)cc2)nc1N`
> 100 µM (inactive)

Requested field: GI50. Item: `SC1=NNC2(C(S)=N1)c1ccccc1-c1ccccc12`
> 10 µM (inactive)

Requested field: GI50. Item: COC(=O)C(COC(=O)/C=C/c1ccc(OC(C)=O)c(OC(C)=O)c1)NC(=O)/C=C/c1ccc(OC(C)=O)c(OC(C)=O)c1 (centres undefined)
11.3 µM (inactive)

Requested field: GI50. Item: CCCCCCCCCCCCCCCCCCOCC(O)CO (centres undefined)
> 11.1 µM (inactive)

Requested field: GI50. Item: NC(=O)C(N)Cc1ccc(O)cn1 (centres undefined)
> 100 µM (inactive)

* * *

# Tested on: RPMI-8226
# test-protocol: NCI tumour cell line growth inhibition, 48 h
Activity calls are given as the source filed them. Rule as the data show it: active = GI50 up to about 1.1 µM and inactive = higher.
Respond with a class label; see t for active, f for inactive

# compound, group-label
rows = [
    ("CC(C)C(/C=C/c1ccccc1)=N\\NC(=S)NN", "f"),
]

Kindly consider the entry below.
// return assay outcome for `COc1ccc(/C=C/C(=O)c2ccc(Br)cc2)cc1`
f

* * *

# System: NCI/ADR-RES
# test-protocol: NCI tumour cell line growth inhibition, 48 h
The source made the active and inactive calls. No stated cut-off is given here; in the data, active = GI50 up to about 1.1 µM and inactive = higher.
Reported GI50 values for a set of compounds

# compound, GI50
rows = [
    ("CC1=C/C(=N\\OCC(=O)O)CC(c2ccc(C(C)C)cc2)C1 (stereo not given)", "21.1 µM (inactive)"),
    ("COc1cc(/C=N/n2c(Cc3ccc(Cl)cc3)n[nH]c2=O)cc(OC)c1OC", "> 100 µM (inactive)"),
    ("O=C(CCSC1=NCCCN1)c1ccc(F)cc1", "28.1 µM (inactive)"),
    ("Cc1ccc(/N=N/C(=NNC(=O)c2ccc(C)cc2)c2ccc(N(C)C)cc2)cc1", "41.3 µM (inactive)"),
    ("COC(=O)C1(C)CCc2c(ccc3ccccc23)C1=O (stereo not given)", "34.8 µM (inactive)"),
    ("COc1cc2c(cc1OC)C1Cc3ccccc3CCN1CC2 (stereo not given)", "> 100 µM (inactive)"),
    ("O=C(Nc1ccc(Cl)cc1)c1cc(S(=O)(=O)NC2=Nc3ccc(Cl)cc3C(c3ccccc3)N2)c(SSc2cc(Cl)c(C(=O)Nc3ccc(Cl)cc3)cc2S(=O)(=O)NC2=Nc3ccc(Cl)cc3C(c3ccccc3)N2)cc1Cl (stereo not given)", "> 100 µM (inactive)"),
    ("O=C(c1ccccc1)N1OCCC1Nc1ccc(Br)cc1 (stereo not given)", "5.43 µM (inactive)"),
]

Requested field: GI50. Item: `COc1ccc(-c2nc(O)c3ccccc3n2)cc1OC`
28.2 µM (inactive)

Requested field: GI50. Item: O=P(NCCCO)(OCc1ccccc1)N(CCCl)CCCl (stereo not given)
> 100 µM (inactive)

* * *

# Tested on: ACHN
# test-protocol: NCI tumour cell line growth inhibition, 48 h
Active and inactive are the calls of the source. Rule as the data show it: active = GI50 up to about 1.1 µM and inactive = higher.
Respond with a class label; see 1 (yes) for active, 0 (no) for inactive

Take a look at these entries with their results.
# compound, group-label
measured = [
    ("COc1cc(/C=C2/C[C@H]3[C@@H]4CC=C5C[C@@H](O)CC[C@]5(C)[C@H]4CC[C@]3(C)NC2=O)cc(OC)c1OC", "0 (no)"),
    ("O=C(CCC(C(=O)OCc1ccccc1)C(=O)OCc1ccccc1)Nc1ccc(OCc2ccccc2)cc1", "0 (no)"),
    ("C[N+]1(CC[N+]2(C)CCCC2c2cccnc2)CCCC1c1cccnc1 (centres undefined)", "0 (no)"),
    ("COc1ccc(C2=NOC(N)(c3ccc(OC)cc3)C2)cc1 (centres undefined)", "0 (no)"),
    ("Cc1cc(-c2nc3cc(F)ccc3s2)ccc1NC(=O)C(C)N (centres undefined)", "0 (no)"),
    ("CC1=C2C(=O)C(C)(C)C=C2C(=O)[C@](C)(O)C12CC2 [DEHYDROILLUDIN M]", "1 (yes)"),
]

// return assay outcome for CCCCCCCCCCCCCC(=O)OCC1OC(OC)C(NC(=O)N(CCCl)N=O)C(O)C1O (centres undefined)
0 (no)

// return assay outcome for `O=c1[nH]nc(-c2ccccc2)c(-c2ccccc2)c1-n1nc(-c2ccccc2)c2ccccc2c1=O`
0 (no)

// return assay outcome for `O=c1c2cc([N+](=O)[O-])cnc2sn1-c1ccc(Oc2ccccc2)cc1`
0 (no)

* * *

# Tested on: KM-20L2
# test-protocol: NCI tumour cell line growth inhibition, 48 h
Activity calls are given as the source filed them. Rule as the data show it: active = GI50 up to about 1.1 µM and inactive = higher.
measured-attribute: GI50

# compound, measured-attribute, recorded-value
rows = [
    ("COc1ccccc1NC(=O)CC(=O)n1nc(C)c(/N=N/c2ccccc2F)c1C", "GI50", "> 100 µM (inactive)"),
]

I'm curious: which GI50 was measured for CC(=O)OC1CC2C(C)(C)C(=O)C=C[C@]2(C)C2CCC3(C)C(=CC(=O)C3c3ccoc3)[C@]12C (stereo not given in full) tested on KM-20L2?
14.7 µM (inactive)

I'm curious: which GI50 was measured for CC1/C=C/[C@@]2(C)CCC(C(C)(C)O)C2C(O)C[C@](C)(O)/C=C/C1 (stereo not given in full) tested on KM-20L2?
> 100 µM (inactive)

I'm curious: which GI50 was measured for `O=S(=O)(c1ccccc1)C1CN(Cc2ccccc2)CCN(Cc2ccccc2)C1` tested on KM-20L2?
35.2 µM (inactive)

I'm curious: which GI50 was measured for CC(C)(C)C1CCC(CI)(N=[N+]=[N-])CC1 (stereo not given) tested on KM-20L2?
> 100 µM (inactive)

I'm curious: which GI50 was measured for `O=C(Nc1cccs1)c1c(O)[nH]c(=S)[nH]c1=O` tested on KM-20L2?
> 100 µM (inactive)

I'm curious: which GI50 was measured for `COc1ccccc1NC(=O)C1=C(C)NC(C)=C(C(=O)Nc2ccccc2OC)C1c1ccc(N(C)C)cc1` tested on KM-20L2?
23.7 µM (inactive)

I'm curious: which GI50 was measured for `O=C1/C(=C/c2cccc([N+](=O)[O-])c2)COc2ccc(Br)cc21` tested on KM-20L2?
> 100 µM (inactive)

I'm curious: which GI50 was measured for `O=C1C=C(Nc2ccc(S(=O)(=O)Nc3ncccn3)cc2)c2ccccc2C1=O` tested on KM-20L2?
28.7 µM (inactive)

I'm curious: which GI50 was measured for O=C1OC(c2ccc(Cl)c3ccccc23)c2ccccc21 (stereo not given) tested on KM-20L2?
64.3 µM (inactive)
